Molecular target: Virion infectivity factor (Human immunodeficiency virus type 1 group M subtype B (isolate BH10)) + Virion infectivity factor (Human immunodeficiency virus type 1 group M subtype B (isolate BRU/LAI)) + Virion infectivity factor (Human immunodeficiency virus type 1 group M subtype B (isolate PCV12)) + Virion infectivity factor (Human immunodeficiency virus type 1 group M subtype B (isolate HXB2)) + DNA dC->dU-editing enzyme APOBEC-3G (Homo sapiens) (UniProt P69720+P69721+P69722+P69723+Q9HC16)
Assay: inhibitors of Vif binding to APOBEC3G peptide, primary screen, biochemical, TR-FRET, GST-Vif 1-94, biotin-A3G peptide, dose response retest (AID 1117319);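 note: Vif residues 1-94 fused to GST binding biotinylated APOBEC3G peptide 110-148; 0% = full assay without inhibitor and 100% = GST in place of GST-Vif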
Settings: active compounds read high
Out of some 260,000 compounds screened, about 1,500 (0.58%) were called active. Another 5% or so got no clear call; they are omitted. A selection follows. Measured potencies and affinities stand elsewhere.
endpoint-name: inhibition (%)
Record the value in %, omitting the unit from your answer.

> print(dat)
                                   compound  readout.units  value.observed
1  COC(=O)c1[nH]c2c(c1C)C(=O)CC(c1ccc(OC)c(OC)c1)C2 (stereo unspecified)              %           -9.19

Input: Quick one: inhibition of O=C(Cc1ccccc1)Nc1ccccc1C(=O)Nc1ccccc1 ?
Output: 9.21

Input: Entry O=C(CCN1CCN(c2ccccc2)CC1)N/N=C/c1ccccc1O has what inhibition?
Output: -5.36

Input: I have this compound here, COc1ccc(/C=N/NC(=O)CCN2CCN(c3ccccc3)CC2)c(OC)c1OC , and I need its recorded inhibition.
Output: 8.69

Input: What value of inhibition has been reported for the following compound? C=CCSC1=N/C(=C\c2ccc(C(=O)O)cc2)C(=O)S1
Output: -15.6

Input: What does the data say about its inhibition? Entry: CNCc1ccccc1Sc1cccc2ccccc12
Output: -4.29

Input: I have this compound here, Cc1ccnc(SCc2cc(=O)c(OC(=O)c3ccccc3)co2)n1 , and I need its recorded inhibition.
Output: 6.36

Input: Bench note: what inhibition did Cc1ccc(O)c(Sc2cc(C)ccc2O)c1 show?
Output: 3.64

Input: inhibition for CCCSC1=N/C(=C\c2ccc3c(c2)OCO3)C(=O)S1 ?
Output: 27

Input: So what's the measured inhibition for this one? c1ccc(CN2CCc3[nH]c4ccccc4c3C2)cc1
Output: -5.69

Input: Which inhibition is listed for CCOC(=O)c1c(S(=O)(=O)NCC2CCN(Cc3cccc(F)c3)CC2)c(C)n(C)c1C ?
Output: -4.42
